Conditions: Ebola virus entry assay, blue channel fluorescence
Calls of active or inactive are those of the source. The rule behind the calls is not given here.
Quantity Name: AC50

> print(dat)
                                    molecule  quantity.name            result
 1                        CCOC(=O)CN1CCCC1=O           AC50          inactive
 2  CC(=O)N[C@H]1[C@H]([C@H](O)[C@H](O)CO)OC(C(=O)O)=C[C@@H]1N=C(N)N           AC50  2.82 µM (active)
 3          C=CCOc1cc(Cl)ccc1C(=O)NCCN(CC)CC           AC50  14.1 µM (active)
 4  CNC(=O)NC(O)C(Cl)(Cl)Cl (configuration not stated)           AC50          inactive
 5         Nc1ccc2c(c1)CN1C(=O)c3ccccc3C1=N2           AC50          inactive
 6  C[C@H]1C[C@H]2[C@@H]3CCC4=CC(=O)C=C[C@]4(C)[C@H]3C(=O)C[C@]2(C)[C@@]1(O)C(=O)CO           AC50          inactive
 7           CN(C)CCN(Cc1ccc(Cl)cc1)c1ccccn1           AC50  17.8 µM (active)
 8  CN(C)CCC(c1ccccc1)c1ccccn1 (configuration not stated)           AC50          inactive
 9  CC(O)COc1ccccc1 (configuration not stated)           AC50          inactive
10  CC1=C(C)C(=O)C(CCCCC#CCCCC#CCO)=C(C)C1=O           AC50          inactive
11  Clc1ccc(CSC(Cn2ccnc2)c2ccc(Cl)cc2Cl)cc1 (configuration not stated)           AC50  5.62 µM (active)
12  CC[C@H](NC(C)C)[C@H](O)c1ccc(O)c2[nH]c(=O)ccc12           AC50          inactive

###

The following molecules are shown together with reported max response values.
Test: qHTS Assay for Identifying Gametocytocidal Compounds (AID 743244);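 note: % is set by controls: 0 for no effect and ±100 for the full control effect; actives lower the fluorescent signal which means gametocytes are killed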
Conditions: P. falciparum 3D7 stage III-V gametocytes, alamarBlue, 72 h; active compounds read low
Inconclusive results are not listed.
Quantity Name: max response (%)

> print(dat)
                                    molecule  measurement.units  readout.number
 1              O=c1n(Cl)c(=O)n(Cl)c(=O)n1Cl                  %            -4.5
 2             COc1cc(C[C@@H](C)N)c(OC)cc1Br                  %           0.803
 3  COc1cc(N)c(Cl)cc1C(=O)NC1CN2CCC1CC2 (configuration not stated)                  %           -2.64
 4           C[C@H](N)[C@H](O)c1ccc(O)c(O)c1                  %         -0.0676
 5  O=C(NC(=O)c1c(F)cccc1F)Nc1cc(Cl)c(OC(F)(F)C(F)C(F)(F)F)cc1Cl (configuration not stated)                  %            13.1
 6                   CN(C)CCc1c[nH]c2ccccc12                  %            16.8
 7  C[N+]1(CCC(C(N)=O)(c2ccccc2)c2ccccc2)CCCCC1                  %           -5.02
 8  ClC1=C(Cl)C2(Cl)C(CBr)CC1(Cl)C2(Cl)Cl (configuration not stated)                  %            -1.6
 9               COc1ccc(CN2CCNCC2)c(OC)c1OC                  %           -9.77
10  C=CC[C@]1(O)CC[C@H]2[C@@H]3CCC4=CC(=O)CCC4=C3C=C[C@@]21C                  %            1.81
11  CCOC(=O)NC(O)C(Cl)(Cl)Cl (configuration not stated)                  %            9.34
12                       NC1(c2ccccc2)CCCCC1                  %            3.42
